Test system: E. coli biofilms
Assay: Biofilm growth assay (spreading biofilm on semi-solid agar), E. coli
Type: cell-based
Details: Escherichia coli, biofilm growth assay, overnight 37° C., vs negative controls; Tables 1-5; read-out: E. coli: concentration that reduces the area of the spreading biofilm by greater than or equal to 85%
Listed next: entries and their corresponding IC85.
reported_property: IC85 (µg/mL)

INSERT INTO results (compound, assay_system, inequality_operator, observed) VALUES
  ('C[C@H]1[C@H](C)CC[C@]2(C(=O)O)CC[C@]3(C)C(=CC[C@@H]4[C@@]5(C)CC[C@H](O)C(C)(C)[C@@H]5CC[C@]43C)[C@H]12 [Ursolic acid, ursolic acid, reference compound]', 'E. coli biofilms', '=', 8),
  ('CN(C)c1[nH]nc2c1C[C@@]1(C)C(CC[C@]3(C)C1CC=C1C4CC(C)(C)CC[C@]4(C(=O)O)CC[C@]13C)C2(C)C (stereo partly drawn) [J]', 'E. coli biofilms', '>', 16),
  ('CC1(C)CC[C@]2(C(=O)NO)CC[C@]3(C)C(=CCC4[C@@]5(C)Cc6c(n[nH]c6N)C(C)(C)[C@@H]5CC[C@]43C)[C@@H]2C1 (stereo partly drawn) [Compound 65]', 'E. coli biofilms', '=', 0.25);

---

Test system: P. aeruginosa biofilms
Assay: Biofilm growth assay (spreading biofilm on semi-solid agar), P. aeruginosa
Type: cell-based
Design: unit: ug/mL
Conditions: Table 6, n = 10 isolates
reported_property: P. aeruginosa (n = 10) inhibitory concentration in the biofilm growth assay

INSERT INTO measurements (compound, inequality_operator, observed) VALUES
  ('CC1(C)CC[C@]2(C(=O)O)CC[C@]3(C)C(=CCC4[C@@]5(C)Cc6c(n[nH]c6N)C(C)(C)[C@@H]5CC[C@]43C)[C@@H]2C1 (stereo partly shown)', '=', 1),
  ('CC[C@H]1OC(=O)[C@H](C)[C@@H](O[C@H]2C[C@@](C)(OC)[C@@H](O)[C@H](C)O2)[C@H](C)[C@@H](O[C@@H]2O[C@H](C)C[C@H](N(C)C)[C@H]2O)[C@](C)(O)C[C@@H](C)CN(C)[C@H](C)[C@@H](O)[C@]1(C)O', '>', 16),
  ('CC(C)(O/N=C(\C(=O)N[C@@H]1C(=O)N2C(C(=O)[O-])=C(C[n+]3ccccc3)CS[C@H]12)c1csc(N)n1)C(=O)O [Ceftazidime, ceftazidime, reference compound]', '=', 4),
  ('NC[C@H]1O[C@H](O[C@H]2[C@H](O)[C@@H](O[C@H]3O[C@H](CO)[C@@H](O)[C@H](N)[C@H]3O)[C@H](N)C[C@@H]2N)[C@H](N)C[C@@H]1O [Tobramycin, tobramcyin, reference compound]', '=', 4);

---

Tested on: E. coli biofilms
Test: Biofilm growth assay (spreading biofilm on semi-solid agar), E. coli
Type: cell-based
Conditions: Escherichia coli, biofilm growth assay, overnight 37° C., vs negative controls; Tables 1-5; read-out: E. coli: concentration that reduces the area of the spreading biofilm by greater than or equal to 85%
Consider the following molecules and their measured IC85 readings.
reported_property: IC85 (µg/mL)

INSERT INTO results (molecule, inequality_operator, observed) VALUES
  ('C[C@H]1[C@H](C)CC[C@]2(C(=O)O)CC[C@]3(C)C(=CCC4[C@@]5(C)Cc6c(n[nH]c6N)C(C)(C)[C@@H]5CC[C@]43C)[C@H]12 (stereo partly drawn)', '=', 1),
  ('C=C(C)[C@@H]1CC[C@]2(C(=O)O)CC[C@]3(C)[C@H](CC[C@@H]4[C@@]5(C)CC[C@H](O)C(C)(C)[C@@H]5CC[C@]43C)[C@@H]12 [Betulinic acid, reference compound]', '>', 16),
  ('CC1(C)CC[C@]2(C(=O)O)CC[C@]3(C)C(=C(c4cc[nH]c4)CC4[C@@]5(C)Cc6c(n[nH]c6N)C(C)(C)[C@@H]5CC[C@]43C)[C@@H]2C1 (stereo partly drawn)', '=', 0.25),
  ('CC1(C)CC[C@]2(C(=O)O)CC[C@]3(C)C(=CCC4[C@@]5(C)Cc6c(n[nH]c6CO)C(C)(C)C5CC[C@]43C)C2C1 (stereo partly drawn)', '>', 8),
  ('CN(C)c1cc(C2=C3[C@@H]4CC(C)(C)CC[C@]4(C(=O)O)CC[C@@]3(C)[C@]3(C)CC[C@H]4C(C)(C)c5n[nH]c(N)c5C[C@]4(C)C3C2)ccn1 (stereo partly drawn)', '>', 2),
  ('CC1(C)CC[C@]2(C(=O)Nc3nnc(S)s3)CC[C@]3(C)C(=CCC4[C@@]5(C)Cc6c(n[nH]c6N)C(C)(C)C5CC[C@]43C)C2C1 (stereo partly drawn)', '>', 2),
  ('CC1(C)CC[C@]2(CN)CC[C@]3(C)C(=CCC4[C@@]5(C)Cc6c(n[nH]c6N)C(C)(C)C5CC[C@]43C)C2C1 (stereo partly drawn)', '=', 1),
  ('CC1(C)CC[C@]2(C(=O)O)CC[C@]3(C)C(=CCC4[C@@]5(C)Cc6cc[nH]c6C(C)(C)C5CC[C@]43C)C2C1 (stereo partly drawn)', '=', 0.5),
  ('CC1(C)CC[C@]2(C(=O)O)CC[C@]3(C)C(=C(c4cccnc4)CC4[C@@]5(C)Cc6c(n[nH]c6N)C(C)(C)[C@@H]5CC[C@]43C)[C@@H]2C1 (stereo partly drawn)', '=', 1),
  ('CC1(C)CC[C@]2(C(=O)O)CC[C@]3(C)C(=C(CO)CC4[C@@]5(C)Cc6c(n[nH]c6N)C(C)(C)[C@@H]5CC[C@]43C)[C@@H]2C1 (stereo partly drawn)', '=', 8),
  ('CC1(C)CC[C@]2(C(=O)O)CC[C@]3(C)C(=CCC4[C@@]5(C)Cc6c[nH]nc6C(C)(C)C5CC[C@]43C)C2C1 (stereo partly drawn)', '=', 4),
  ('CC1(C)CC[C@]2(C(=O)Nc3nnc(N)s3)CC[C@]3(C)C(=CCC4[C@@]5(C)Cc6c(n[nH]c6N)C(C)(C)C5CC[C@]43C)C2C1 (stereo partly drawn)', '=', 2);
